# EXPERIMENTAL TARGET: T1, Human CD19-his protein (human, UniProt P15391 20-291)
# T1 construct: bought protein; also called human CD19 protein; recombinant human CD19-His; not shown: His tag
# T1 sequence (looked up): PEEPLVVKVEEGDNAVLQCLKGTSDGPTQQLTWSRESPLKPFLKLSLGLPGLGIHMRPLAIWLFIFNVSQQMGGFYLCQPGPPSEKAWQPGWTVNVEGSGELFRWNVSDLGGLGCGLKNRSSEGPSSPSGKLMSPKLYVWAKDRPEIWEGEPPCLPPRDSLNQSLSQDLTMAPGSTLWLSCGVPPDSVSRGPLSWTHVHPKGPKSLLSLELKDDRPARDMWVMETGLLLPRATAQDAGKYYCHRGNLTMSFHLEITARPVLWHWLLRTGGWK
# ASSAY DETAILS: ELISA, antibody at 100 nM
Strictly below 1 in OD450: y. Otherwise: n.

INSERT INTO measurements (binder, label) VALUES
  ('F4.15.9 (antibody, human IgG1, V domains shown, human-murine chimeric antibody, human IgG1) VH: QVQLQQSGPELVKPGASVKISCKASGYAFSSSWMNWLKQRPGQGLEWIGRIYPGDGDTNYNGKFKGKATLTADESSSTAYMQLSSLTSVDSAVYFCARGITTIITIAWFASWGQGTLVTVSA VL: QIVLSQSPTILSASPGEKVTMTCRASSSVSYMHWYQQKPGSSPKPWIYATSNLASGVPPRFSGSGSGTSYSLTISRVGAEDAATYYCQQWSSDPWTFGGGTKLEIK', 'n');

Then this binder:
Does the reported OD450 of the following binder sit strictly below 1? F3.126.15 (antibody, human IgG1, V domains shown, human-murine chimeric antibody, human IgG1) VH: QVQLQQPGAELVMPGASVKLSCKASGYTFTSYWMHWVKQRPGQGLEWIGEIDPSDSYTTYNQNFKGKATLTVDISTSTAYIQLSNLTSEDSAVYYCARLTGNYIHYWGQGTTLTVSS VL: DIVMTQSHKFMSTSVGDRVSITCKASQDVSPAVAWYQQRPGQCPKLLIFSSSYRSTGVPDRFTGSGSGTDFTFTISSVQAEDLAVYYCQQHYSLPLTFGAGTKLELK
y
